This collection of values is drawn from BindingDB's records for doi:10.1021/jm00089a016.

experiment: In vitro intrinsic binding affinity at platelet activating factor receptor using rabbit platelet membranes
For each record, check the reported Ki: if it is below 4 µM write Met, else write Not met.

1) CNC(=O)CN1CCC2=C(C1)c1c(O)cc(C(C)C)cc1OC2(C)C; Not met
2) COc1cc(C(C)CCCc2ccc(F)cc2)cc2c1C1=C(CCN(CCCCCC(=O)O)C1)C(C)(C)O2 (stereo unspecified); Not met
3) C#CCN1CCC2=C(C1)c1c(O)cc(C(C)CCCc3ccc(F)cc3)cc1OC2(C)C (stereo unspecified); Met
4) CC(CCCc1ccc(F)cc1)c1cc(O)c2c(c1)OC(C)(C)C1=C2CN(CC(=O)N(C)C)CC1 (stereo unspecified); Not met
5) CNC(=O)CN1CCC2=C(C1)c1c(O)cc(C(C)CCCc3ccc(F)cc3)cc1OC2(C)C (stereo unspecified); Met
6) CC(CCCc1ccc(F)cc1)c1cc(O)c2c(c1)OC(C)(C)C1=C2CN(C(=O)CO)CC1 (stereo unspecified); Not met
7) CNC(=O)CN1CCC2=C(C1)c1c(OC)cc(C(C)CCCc3ccc(F)cc3)cc1OC2(C)C (stereo unspecified); Met
8) COc1cc(C(C)CCCc2ccc(F)cc2)cc2c1C1=C(CCN(CCCCC(=O)O)C1)C(C)(C)O2 (stereo unspecified); Not met
9) COc1cc(C(C)CCCc2ccc(F)cc2)cc2c1C1=C(CCN(CCC(=O)O)C1)C(C)(C)O2 (stereo unspecified); Not met
10) CNC(=O)CN1CCC(C(C)(C)O)=C(c2c(O)cc(C(C)CCCc3ccc(F)cc3)cc2O)C1 (stereo unspecified); Not met
11) CNC(=O)CN1CCC2=C(C1)c1c(OCC(=O)O)cc(C(C)CCCc3ccc(F)cc3)cc1OC2(C)C (stereo unspecified); Met
12) CNC(=O)CN(C)CC1=CC(C)(C)Oc2cc(C(C)CCCc3ccc(F)cc3)cc(O)c21 (stereo unspecified); Met
13) COc1cc(C(C)CCCc2ccc(F)cc2)cc2c1C1=C(CCN(Cc3ccccn3)C1)C(C)(C)O2 (stereo unspecified); Not met
14) CNC(=O)CCCN1CCC2=C(C1)c1c(O)cc(C(C)CCCc3ccc(F)cc3)cc1OC2(C)C (stereo unspecified); Not met
15) CCCCCC(C)C(C)c1cc(O)c2c(c1)OC(C)(C)C1=C2CN(CC(=O)NC)CC1 (stereo unspecified); Met
16) CC1CSC2=C1c1c(O)cc(C(C)CCCc3ccc(F)cc3)cc1OC2(C)C (stereo unspecified); Not met
